Source of measurements: patent US7501434B2

# Test method notes: Administration in GI-physiology altered dogs (plasma pharmacokinetics)
# Format: in vivo
# Test settings: male, beagle, dog, po, 50 mg, Mean, N 3 dogs, single 50 mg capsule

{"columns": ["Compound", "AUC(0-inf), ng·h/mL"],
 "data": [
  ["C[N+]1(CC2CC2)CC[C@]23c4c5ccc(O)c4O[C@H]2[C@](O)(C(=O)O)C[C@@]3(O)[C@H]1C5 (stereo partly shown) [Compound Ia]", 6220]
]}

====

# Test method notes: Administration in GI-physiology altered dogs (plasma pharmacokinetics)
# Format: in vivo
# Test settings: male, beagle, dog, po, 50 mg, Dog 3, PO, single 50 mg capsule

{"columns": ["Molecule", "AUC(0-inf), ng·h/mL"],
 "data": [
  ["C[N+]1(CC2CC2)CC[C@]23c4c5ccc(O)c4O[C@H]2[C@](O)(C(=O)O)C[C@@]3(O)[C@H]1C5 (stereo partly shown)", 6220]
]}

====

# Test method notes: Administration in GI-physiology altered dogs (plasma pharmacokinetics)
# Format: in vivo
# Test settings: male, beagle, dog, po, 50 mg, Median, N 3 dogs, single 50 mg capsule

{"columns": ["Compound", "half-life"],
 "data": [
  ["C[N+]1(CC2CC2)CC[C@]23c4c5ccc(O)c4O[C@H]2[C@](O)(C(=O)O)C[C@@]3(O)[C@H]1C5 (stereo partly shown) [Compound Ia]", "2.8 h"]
]}

====

# Test method notes: Aqueous solubility
# Format: physicochemical
# Test settings: thermodynamic from solid; pH: 2.2, water

{"columns": ["Molecule", "solubility"],
 "data": [
  ["C[N+]1(CC2CC2)CC[C@]23c4c5ccc(O)c4O[C@H]2[C@](O)(C(=O)O)C[C@@]3(O)[C@H]1C5 (stereo partly shown)", "> 56 mg/mL"]
]}

====

# Test method notes: Administration in GI-physiology altered dogs (plasma pharmacokinetics)
# Format: in vivo
# Test settings: male, beagle, dog, po, 50 mg, Mean, N 3 dogs, single 50 mg capsule
Measured attribute: Cmax (ng/mL)

{"columns": ["Compound", "Measured attribute", "Measured value"],
 "data": [
  ["C[N+]1(CC2CC2)CC[C@]23c4c5ccc(O)c4O[C@H]2[C@](O)(C(=O)O)C[C@@]3(O)[C@H]1C5 (stereo partly shown)", "Cmax", 1360]
]}
